Data origin: PubChem BioAssay AID1745844

- System: rodent lifetime carcinogenesis bioassay, tumor incidence TD50
- ASSAY SUMMARY: carcinogenic potency in animals, long-term in vivo studies, CPDB compilation (AID 1745844)
- TEST CONTEXT: mouse; strain Swiss albino; males; in drinking water; site: liver; lesion: several types; types named in the paper; dosed 93 weeks; study length 93 weeks

# MOLECULAR STRING, READOUT UNIT, TD50
data = [
    ("CCCNN", "mg/kg/day", 80.8),
]

###

- Tested on: rodent lifetime carcinogenesis bioassay, tumor incidence TD50
- ASSAY SUMMARY: carcinogenic potency in animals, long-term in vivo studies, CPDB compilation (AID 1745844)
- TEST CONTEXT: mouse; strain B6C3F1; females; i.p.; site: any site (literature study); lesion: several types; types named in the paper; dosed 40 weeks; study length 78 weeks
ENDPOINT: TD50 (mg/kg/day)

# MOLECULAR STRING, READOUT UNIT, OBSERVED RESULT
rows = [
    ("CC[C@H]1CN2CCc3cc(OC)c(OC)cc3[C@@H]2C[C@@H]1C[C@H]1NCCc2cc(OC)c(OC)cc21", "mg/kg/day", 1.2),
]
